Test system: CAPAN-1 (Pancreatic Carcinoma);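 note: after 72 h of two-drug dosing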
EXPERIMENTAL PROTOCOL: Bliss excess, mean over the matrix (fraction); higher = more synergy
Think of -0.0006 as a floor: if Bliss excess stands on it or above, it is condition met; beneath it, condition not met.

A selection of reference data follows.
[[record]]
compound = "Cc1c2c(nn1C)CSCc1cc(n(C)n1)CSc1cc(c3ccccc3c1)OCCCc1c(C(=O)O)n(C)c3c-2c(Cl)ccc13 [AZD5991] + CN(C)CCCOc1ccc(-c2ccc3ncc4c(c3c2)n(C2CCOCC2)c(=O)n4C)cn1 [AZD0156] (first compound max 1 µM, 7x7, partner max 1 µM)"
assigned_label = "condition not met"

[[record]]
compound = "CN(CCO)CC[C@H](CSc1ccccc1)Nc1ccc(S(=O)(=O)NC(=O)c2ccc(N3CCC([C@@H](O)c4ccccc4-c4ccc(Cl)cc4)CC3)cc2)cc1S(=O)(=O)C(F)(F)F [AZD4320] + C=CCn1c(=O)c2cnc(Nc3ccc(N4CCN(C)CC4)cc3)nc2n1-c1cccc(C(C)(C)O)n1 [AZD1775] (first compound max 1 µM, partner max 1 µM)"
assigned_label = "condition met"

[[record]]
compound = "COc1cccc2c1C(=O)c1c(O)c3c(c(O)c1C2=O)C[C@@](O)(C(=O)CO)C[C@@H]3O[C@H]1C[C@H](N)[C@H](O)[C@H](C)O1 [Doxorubicin] + Cc1cc2ncnn2cc1Nc1ncc2c(n1)n(C1CCOCC1)c(=O)n2C [AZD7648] (first compound max 1 µM, 7x7, partner max 10 µM)"
assigned_label = "condition met"

[[record]]
compound = "Cc1cc2ncnn2cc1Nc1ncc2c(n1)n(C1CCOCC1)c(=O)n2C [AZD7648] + C=CCn1c(=O)c2cnc(Nc3ccc(N4CCN(C)CC4)cc3)nc2n1-c1cccc(C(C)(C)O)n1 [AZD1775] (first compound max 10 µM, partner max 1 µM)"
assigned_label = "condition met"


QUERY: Does C=CCn1c(=O)c2cnc(Nc3ccc(N4CCN(C)CC4)cc3)nc2n1-c1cccc(C(C)(C)O)n1 [AZD1775] + Nc1ccn([C@@H]2O[C@H](CO)[C@@H](O)C2(F)F)c(=O)n1 [Gemcitabine] (first compound max 1 µM, partner max 0.3 µM) have a reported Bliss excess of at least -0.0006?
RESULT: condition not met
